# Test system: SK-MEL-5 melanoma
# Protocol details: NCI-60 one-dose screen, 48 h
# Conditions: 10 µM unless noted
Compounds without any hit were thinned out: in the full panel of roughly 83,000, 20% have a hit. Active and inactive are the calls of the source. Rule for the calls: active = growth percent below 10; inactive = the rest.
Pick from active, inactive when you respond.

Please review the entries below; each comes with its answer.
| Compound | Label value |
| --- | --- |
| CN(C)c1ccc(/C=C/C2=[N+](C)c3ccccc3C2(C)C)cc1 | active |
| O=C1/C(=C/c2ccccc2)COc2ccc(O)cc21 | inactive |
| C#CCOc1cccc(-c2ncnc3cc(NC(=O)CCl)ccc23)c1 | active |

### Prompt Can you look up the reported call for COc1cc(C2=Nc3c(N)nc(N)nc3NC(c3cccc(Nc4ccnc5cc(C(F)(F)F)ccc45)c3)C2)cc(OC)c1OC (centres undefined) for me?
### Response inactive

###

# Tested on: ACHN renal
# Protocol details: NCI-60 one-dose screen, 48 h
# Conditions: 10 µM unless noted
Compounds without any hit were thinned out: in the full panel of roughly 83,000, 20% have a hit. Calls of active or inactive are those of the source. How the source made its calls: active means growth percent below 10; inactive means the rest.
Pick from 1 (yes) for active, 0 (no) for inactive when you respond.

| Molecule | Measurement target | Label value |
| --- | --- | --- |
| CSc1nn2c(-c3cc4cc(Br)ccc4oc3=O)ccnc2c1C#N | ACHN renal | 0 (no) |

### Prompt Can you look up the reported call for O=C(Nc1ccc2[nH]ncc2c1)c1csc(Nc2ccccc2)n1 for me?
### Response 0 (no)

### Prompt Can you look up the reported call for N#C/C(Sc1nc2sc3c(c2c(=O)n1Cc1ccccc1)CCCC3)=C1/SC=C(c2ccc(Cl)cc2)N1c1ccccc1 for me?
### Response 0 (no)

### Prompt Can you look up the reported call for COc1c(O[C@@H]2OC(CO)[C@H](O)[C@H](O)C2O)cc2oc3cc(O)c(CC=C(C)C)c(O)c3c(=O)c2c1CC=C(C)C (stereo not given in full) for me?
### Response 0 (no)

### Prompt Can you look up the reported call for C=C(c1ccc(OC)c(/C=C/C(=O)c2cc(OC)c(OC)c(OC)c2)c1)c1cc(OC)c(OC)c(OC)c1 for me?
### Response 1 (yes)

###

# System: MDA-MB-231 breast
# Protocol details: NCI-60 one-dose screen, 48 h (100 = growth as untreated, 0 = no growth, -100 = all killed)
# Conditions: 10 µM unless noted
# Protocol: Cells are grown in 96 well plates and exposed to the test compound for 48 hours. Compounds are tested at a single concentration, which is 10^-5 M for most compounds. The reported endpoint is percent growth (GI% or GIPRCNT), where numbers from 0 - 100% represent growth inhibition, and numbers from -100% - 0 represent cell death. For example, a value of 40 represents 60% growth inhibition. A value of 0 means no net growth occurred over the course of the experiment. […]
Compounds without any hit were thinned out: in the full panel of roughly 83,000, 20% have a hit.
Classes are defined on growth with ranges low group = under 50%, middle group = from 50% up to 60%, high group = 60% and over

| Compound | Label value |
| --- | --- |
| O=C(/C=C/c1ccco1)Nc1ncc(Cc2ccc(F)cc2)s1 | low group |
| COc1cc(NC(=O)c2cncnc2Nc2ccc3c(ccn3Cc3cccc(F)c3)c2)cc(OC)c1 | middle group |
| Clc1nc(N2CCC[N+]3(CC2)CC[N+]2(CCCNCC2)CC3)nc(N2CCC[N+]3(CC2)CC[N+]2(CCCNCC2)CC3)n1 (stereo not drawn) | high group |
| O=C(/C=C/C12c3ccccc3C(c3ccccc31)C1C(=O)NC(=O)C12)c1cccs1 (stereo not drawn) | middle group |
| Cc1ccc(C2=Nc3c(N)nc(N)nc3NC(c3cccc(Nc4ccnc5cc(C(F)(F)F)ccc45)c3)C2)cc1 (stereo not drawn) | low group |

### Prompt Category of COc1cc(OCc2cccc(-c3ccccc3)c2C)cc(OC)c1CN1CCCCC1C(=O)NCCOCCOCCN (stereo not drawn) :
### Response middle group

### Prompt Category of O=c1[nH]c(CN2CCN(c3ccccc3)CC2)nc2c(Br)cc(Br)cc12 :
### Response high group

###

Entries and their growth values follow.
# Test system: KM12 colon
# Protocol details: NCI-60 one-dose screen, 48 h (100 = growth as untreated, 0 = no growth, -100 = all killed)
# Conditions: 10 µM unless noted
This is part of a sample that, as a whole, favours compounds with a hit. Of some 83,000 tested, about 20% had one in any assay. The source made the active and inactive calls. How the source made its calls: active means growth percent below 10; inactive means the rest.

| Entry smiles | growth |
| --- | --- |
| O=C(O)/C=C/c1cn(-c2ccccc2)nc1-c1ccc(F)cc1 | 90.4% (inactive) |
| CC(C)CCc1nc2ccc(NCc3ccc(OCCN4CCC(C)CC4)cc3)cc2[nH]1 | 87.6% (inactive) |

Lab note: next compound to report on.
### Prompt Query (compound): CCOC(=O)c1c(N)sc2cc(O)ccc12 ; field requested: growth
### Response 89.1% (inactive)

###

# Tested on: NCI-H322M lung
# Protocol details: NCI-60 one-dose screen, 48 h (100 = growth as untreated, 0 = no growth, -100 = all killed)
# Conditions: 10 µM unless noted
This is part of a sample that, as a whole, favours compounds with a hit. Of some 83,000 tested, about 20% had one in any assay.
Measure: growth (%)
Give just the number in %; leave the unit off.

Example cases with answers are listed next.
| Molecule | Measurement target | Unit info | growth |
| --- | --- | --- | --- |
| CCCCCCCCNC(=O)[C@@H](N)CSCOC(C)=O | NCI-H322M lung | % | 89.8 |
| C=C1C(=O)O[C@H]2[C@H]1CC/C(COC(=O)NCc1ccc(Cn3c(=O)sn(CCCC)c3=O)cc1)=C\CC[C@@]1(C)O[C@@H]21 | NCI-H322M lung | % | 105 |
| CCOC(=O)/C(=C/c1ccc([N+](=O)[O-])cc1)C(=O)c1ccccc1 | NCI-H322M lung | % | 73.5 |
| Cc1ccc(NC(=O)c2ccc(Nc3ncnc4c3cnn4-c3cccc(F)c3)cc2)cc1 | NCI-H322M lung | % | 103 |
| COCCn1cc(-c2nc(-c3cc4cccnc4n3C)cs2)c2cc(OC)ccc21 | NCI-H322M lung | % | 26 |
| CN(C)CC1C(=O)O[C@H]2[C@H]1CC/C(COC(=O)NCc1ccc(Cn3c(=O)sn(CCCI)c3=O)cc1)=C\CC[C@@]1(C)O[C@@H]21 (stereo not given in full) | NCI-H322M lung | % | 95.1 |

### Prompt Query (molecule): CC(=O)c1ccc(Nc2nccc(-c3ccc(Cl)cc3)n2)cc1 ; field requested: growth
### Response 100

### Prompt Query (molecule): FC(F)(F)c1cccc(-c2nnn(Cc3cc(-c4cccc(Cl)c4)no3)n2)c1 ; field requested: growth
### Response 111

###

# Tested on: UACC-62 melanoma
# Protocol details: NCI-60 one-dose screen, 48 h
# Conditions: 10 µM unless noted
The panel holds about 83,000 compounds, 20% with a hit somewhere; the sample as a whole holds those more often. Calls of active or inactive are those of the source. Rule for the calls: active = growth percent below 10; inactive = the rest.
Pick from class 1 for active, class 0 for inactive when you respond.

Please review the entries below; each comes with its answer.
| Entry smiles | Label value |
| --- | --- |
| Cn1cc(-c2csc(-c3cn(C)c4ccc(F)cc34)n2)c2cnccc21 | class 1 |
| Cc1cc2nc(C(Cl)Cl)nc(-c3ccccc3)n2n1 | class 0 |

### Prompt Can you look up the reported call for COc1ccc(-c2nc3cc(C(=O)NC4CCCCC4)ccc3n2C2CCCCC2)cc1 for me?
### Response class 0

### Prompt Can you look up the reported call for Cc1ccc(-c2nn(CC(=O)N3CCOCC3)c(N)c2C#N)cc1 for me?
### Response class 0

###

# Tested on: PC-3 prostate
# Protocol details: NCI-60 one-dose screen, 48 h (100 = growth as untreated, 0 = no growth, -100 = all killed)
# Conditions: 10 µM unless noted
This is part of a sample that, as a whole, favours compounds with a hit. Of some 83,000 tested, about 20% had one in any assay.
Classes are defined on growth with ranges Low (below 30%), Mid (30% to below 80%), High (80% or more)

| Compound | Measurement target | Label value |
| --- | --- | --- |
| CN1C(=O)N(C)C2C1NN=c1s/c(=C\c3ccccc3F)c(=O)n12 (configuration not stated) | PC-3 prostate | Low |

### Prompt Category of C#CCOc1cccc(Nc2ncnc3c(NC(=O)CCl)cccc23)c1 :
### Response Low

### Prompt Category of CCCCC#Cc1c(I)n(C2OC(CO[Si](C)(C)C(C)(C)C)C3OC(C)(C)OC32)c(=O)[nH]c1=O (configuration not stated) :
### Response High

### Prompt Category of COc1cccc2cc(N(C)c3ncnc4ccccc34)ccc12 :
### Response Low

Hey, just so you know, these numbers are from PubChem BioAssay (NCI).
